Hello, the source for this data is paper PMC4682775, in case you need it.

- target.or.system: ACE (Rattus norvegicus)
- Construct: 20 μL of enzyme-containing serum; from tissue; host or cells: fresh Wistar rat serum
- Sequence (P47820 36-1313): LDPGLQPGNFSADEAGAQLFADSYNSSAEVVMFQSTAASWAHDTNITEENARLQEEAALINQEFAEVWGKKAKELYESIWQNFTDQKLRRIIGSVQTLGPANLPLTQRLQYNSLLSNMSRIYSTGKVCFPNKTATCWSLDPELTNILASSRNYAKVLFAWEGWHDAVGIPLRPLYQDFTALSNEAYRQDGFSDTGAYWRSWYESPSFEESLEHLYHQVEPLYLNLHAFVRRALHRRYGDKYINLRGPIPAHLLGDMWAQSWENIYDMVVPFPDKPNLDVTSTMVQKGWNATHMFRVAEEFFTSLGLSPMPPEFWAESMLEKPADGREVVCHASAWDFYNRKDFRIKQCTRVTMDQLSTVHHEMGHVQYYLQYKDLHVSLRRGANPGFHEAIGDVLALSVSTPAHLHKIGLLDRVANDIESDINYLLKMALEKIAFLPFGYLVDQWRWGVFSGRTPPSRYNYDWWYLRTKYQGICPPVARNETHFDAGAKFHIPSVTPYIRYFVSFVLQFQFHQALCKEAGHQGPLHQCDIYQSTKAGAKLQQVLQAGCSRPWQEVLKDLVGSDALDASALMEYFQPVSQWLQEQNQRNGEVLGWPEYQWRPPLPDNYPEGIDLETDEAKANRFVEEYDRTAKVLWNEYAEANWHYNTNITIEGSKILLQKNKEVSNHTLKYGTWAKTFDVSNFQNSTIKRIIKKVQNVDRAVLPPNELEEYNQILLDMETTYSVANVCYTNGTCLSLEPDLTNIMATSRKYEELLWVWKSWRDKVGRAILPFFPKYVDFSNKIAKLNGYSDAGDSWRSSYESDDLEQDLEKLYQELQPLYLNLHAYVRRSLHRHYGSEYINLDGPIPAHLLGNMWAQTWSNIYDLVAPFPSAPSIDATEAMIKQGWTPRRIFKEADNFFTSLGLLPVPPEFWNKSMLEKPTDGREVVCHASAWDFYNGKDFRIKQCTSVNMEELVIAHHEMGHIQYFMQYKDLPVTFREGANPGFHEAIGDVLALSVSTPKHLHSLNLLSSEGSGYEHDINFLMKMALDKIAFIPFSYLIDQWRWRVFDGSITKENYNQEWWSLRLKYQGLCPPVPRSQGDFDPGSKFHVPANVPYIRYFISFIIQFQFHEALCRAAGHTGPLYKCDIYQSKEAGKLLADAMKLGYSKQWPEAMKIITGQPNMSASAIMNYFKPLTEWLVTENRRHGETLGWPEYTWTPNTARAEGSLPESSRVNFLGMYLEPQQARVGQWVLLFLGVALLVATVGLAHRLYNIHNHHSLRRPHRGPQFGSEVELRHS
- assay.remarks: biochemical
- Design: species or system rat (Wistar rat serum)
- run.conditions: rat serum ACE; 1.0 mM hippuryl-His-Leu-OH, 20 mM Tris-HCl pH 8.1, 0.3 M NaCl, 37°C, 30 min, duplicate; inhibitor 0.05 to 50 μM; non-linear regression; read-out: IC50, ACE inhibition
No end group written: not given here.
parameter: IC50 (µM)
A number alone suffices; assume µM.

Recorded result, WPPPKVSP-NH2 [BPP-BrachyNH2] , IC50: 8.2
